The measurements presented in this section are drawn from ChEMBL document CHEMBL5370585.

protocol-description: AUC (0 to t) in ICR mouse at 10 mg/kg, ip measured after 5 to 24 hrs post administration by LC-MS/MS analysis
Assay type: ADME, organism-based
Set-up: time 5-24 hrs, dose 10 mg/kg, route ip
applied-conditions: ICR, in vivo
readout-label: AUC(0-t) (ng·h/mL)

compound-structure-string | result-number
Cc1cc2c3c(N)nc(N)nc3ccc2n1Cc1nc2ccccc2s1 | 2280

----------
Tested on: Enterococcus faecalis
protocol-description: Antibacterial activity against Enterococcus faecalis ATCC 29212 incubated for 16 to 18 hrs by CLSI based broth dilution method
Type: functional
applied-conditions: time 16-18 hrs
With a cut-off of 0.1 µg/mL, any MIC strictly below it is called 1.0; any MIC meeting it or above is called 0.0.

compound | label-class
Nc1nc(N)c2c(ccc3c2ccn3Cc2ccc(-c3ccccc3)cc2)n1 | 0.0
Nc1nc(N)c2c(ccc3c2ccn3Cc2cccc3scnc23)n1 | 1.0
CCOC(=O)c1ccc(Cn2ccc3c4c(N)nc(N)nc4ccc32)c2ccccc12 | 0.0
Nc1nc(N)c2c(ccc3c2cc(-c2ccccc2)n3Cc2nc3ccccc3s2)n1 | 0.0
COc1cc(Cc2cnc(N)nc2N)c2c(c1OC)OC(C1CC1)C=C2 (stereo unspecified) | 1.0
Cc1cc2c3c(N)nc(N)nc3ccc2n1Cc1nc2ccccc2s1 | 0.0
Nc1nc(N)c2c(ccc3c2ccn3Cc2cc3ccccc3s2)n1 | 0.0
Nc1nc(N)c2c(ccc3c2ccn3Cc2nc3ccc(C(=O)O)cc3s2)n1 | 0.0
Nc1nc(N)c2c(ccc3c2ccn3Cc2ccc3sccc3c2)n1 | 1.0
Nc1nc(N)c2c(ccc3c2ccn3Cc2ccc3nc(N)sc3c2)n1 | 0.0
Nc1nc(N)c2c(ccc3c2ccn3Cc2nc3ccccc3s2)n1 | 1.0

----------
protocol-description: Stability in mouse plasma assessed as parent compound remaining at 5 ug/ml measured after 1440 mins by LC-MS/MS analysis
Format: ADME, cell-free
applied-conditions: at 5 µg/mL, read-out: Stability
readout-label: remaining at 24 h, 5 ug/ml (%)

compound-structure-string | result-number
Nc1nc(N)c2c(ccc3c2ccn3Cc2ccc3scnc3c2)n1 | 95.5
Cc1cc2c3c(N)nc(N)nc3ccc2n1Cc1nc2ccccc2s1 | 97

----------
Tested on: Staphylococcus aureus
protocol-description: Antibacterial activity against vancomycin intermediate Staphylococcus aureus ATCC 700788 incubated for 16 to 18 hrs by CLSI based broth dilution method
Assay type: functional
applied-conditions: time 16-18 hrs
A collection of compounds and their measured MIC

compound | unit-string | value-comparator | MIC
Nc1nc(N)c2c(ccc3c2ccn3Cc2cccc3cccnc23)n1 | µg/mL | ≤ | 0.03
Nc1nc(N)c2c(ccc3c2ccn3Cc2cccc3ccccc23)n1 | µg/mL | ≤ | 0.03
C[C@H]1COc2c(N3CCN(C)CC3)c(F)cc3c(=O)c(C(=O)O)cn1c23 [LEVOFLOXACIN ANHYDROUS] | µg/mL | = | 32
COc1cc(Cc2cnc(N)nc2N)cc(OC)c1OC | µg/mL | = | 0.5
Nc1nc(N)c2c(ccc3c2ccn3Cc2nc3ccccc3s2)n1 | µg/mL | ≤ | 0.03

----------
Tested on: Enterococcus faecalis
protocol-description: Antibacterial activity against Enterococcus faecalis ATCC 29212 incubated for 16 to 18 hrs by CLSI based broth dilution method
Type: functional
applied-conditions: time 16-18 hrs
readout-label: MIC

compound | result
Cc1cc2c3c(N)nc(N)nc3ccc2n1Cc1ccc(-c2ccccc2)cc1 | 4 µg/mL
COc1cc(Cc2cnc(N)nc2N)cc(OC)c1OC [TRIMETHOPRIM] | 0.5 µg/mL
COC(=O)c1ccc2nc(Cn3ccc4c5c(N)nc(N)nc5ccc43)sc2c1 | 2 µg/mL
Cc1cc2c3c(N)nc(N)nc3ccc2n1Cc1cccc2scnc12 | 2 µg/mL
Nc1nc(N)c2c(ccc3c2ccn3Cc2ccc3scnc3c2)n1 | 0.03 µg/mL
COC(=O)c1ccc(Cn2ccc3c4c(N)nc(N)nc4ccc32)c2ccccc12 | 0.016 µg/mL
Nc1nc(N)c2c(ccc3c2ccn3Cc2nc3ccccc3o2)n1 | 0.25 µg/mL
Nc1nc(N)c2c(ccc3c2ccn3Cc2ccc3ccccc3c2)n1 | 0.5 µg/mL
Nc1nc(N)c2c(ccc3c2ccn3Cc2ccc(B(O)O)c3ccccc23)n1 | 0.125 µg/mL
Nc1nc(N)c2c(ccc3c2ccn3Cc2cccc3sc(N)nc23)n1 | 0.25 µg/mL
COC(=O)c1ccc2nc(Cn3ccc4c5c(N)nc(N)nc5ccc43)ccc2c1 | 0.25 µg/mL
